target.or.system: T1, human cannabinoid receptor type 1 (CB1) (human, UniProt P21554 1-472)
T1 construct: DiscoverX cAMP Hunter CHO-K1 CNR1 Gi cells for cAMP and pERK assays; also called huCB1; huCB-1
T1 sequence (P21554 whole entry): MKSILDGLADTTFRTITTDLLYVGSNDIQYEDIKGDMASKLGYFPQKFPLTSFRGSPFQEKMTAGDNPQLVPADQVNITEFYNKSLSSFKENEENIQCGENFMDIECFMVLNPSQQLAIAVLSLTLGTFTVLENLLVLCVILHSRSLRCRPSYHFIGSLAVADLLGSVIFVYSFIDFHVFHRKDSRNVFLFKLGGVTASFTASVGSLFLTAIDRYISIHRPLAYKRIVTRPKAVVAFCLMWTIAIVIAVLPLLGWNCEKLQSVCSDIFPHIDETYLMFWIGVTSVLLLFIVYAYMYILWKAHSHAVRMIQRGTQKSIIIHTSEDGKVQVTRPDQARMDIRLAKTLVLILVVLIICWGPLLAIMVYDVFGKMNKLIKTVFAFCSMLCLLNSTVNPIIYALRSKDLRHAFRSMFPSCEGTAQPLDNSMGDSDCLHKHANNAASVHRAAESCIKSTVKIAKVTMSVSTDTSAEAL
test.method.notes: flow cytometry, single point at 30 ug/mL antibody, signal on CHO-huCB-1 cells relative to CHO parental cells
measured.quantity: binding result

INSERT INTO assay_data (binder, experimental_result) VALUES
  ('M7-H13 humanized anti-CB1 antibody (antibody, human IgG1, kappa, L234A L235A, V domains shown) VH: QVQLVQSGAEVKKPGASVKLSCKASSYTFTRYWMNWVRQAPGQGLEWIGMIDPYDSETHYNQKFQGRATLTVDTSTSTAYMELSSLRSEDTAVYFCARSQPRYYAMDYWGQGTTVTVSS VL: DIQMTQSPSSLSASVGDRVTLTCRASQEISGFLSWLQLKPGKAIKRLIYAASSLDSGVPSRFSGSWSGTDYTLTISSLQPEDFADYYCLQYSSYPYTFGGGTKLEIKR', 'binds'),
  ('M7-H14 humanized anti-CB1 antibody (antibody, human IgG1, kappa, L234A L235A, V domains shown) VH: QVQLVQSGAEVKKPGASVKVSCKASSYTFTRYWMNWVRQAPGQGLEWMGMIDPYDSETHYNQKFQGRVTMTRDTSTSTVYMELSSLRSEDTAVYYCARSQPRYYAMDYWGQGTTVTVSS VL: DIQMTQSPSSLSASVGDRVTLTCRASQEISGFLSWLQLKPGKAIKRLIYAASSLDSGVPSRFSGSWSGTDYTLTISSLQPEDFADYYCLQYSSYPYTFGGGTKLEIKR', 'binds'),
  ('M7-H16 humanized anti-CB1 antibody (antibody, human IgG1, kappa, L234A L235A, V domains shown) VH: QVQLVQSGAEVKKPGASVKVSCKASSYTFTRYWMNWVRQAPGQGLEWMGIIDPYDSETSYAQKFQGRVTMTRDTSTSTVYMELSSLRSEDTAVYYCARSQPRYYAMDYWGQGTTVTVSS VL: DIQMTQSPSSLSASVGDRVTLTCRASQEISGFLSWLQLKPGKAIKRLIYAASSLDSGVPSRFSGSWSGTDYTLTISSLQPEDFADYYCLQYSSYPYTFGGGTKLEIKR', 'binds');
